system: TNFα; test: cells; type: cell-based, human; conditions: Homo sapiens, Monocyte, LPS-stimulated human monocytes, TNFα content; read-out: EC50 TNF
pEC50: −log10 of the molar value.

{"columns": ["compound", "pEC50"],
 "data": [
  ["CC(C)(O)[C@H](F)CNC(=O)c1cnc(-c2ccc3cc(C#N)cnn23)cc1NC12CCC(N3CCOC3=O)(CC1)CC2", 8.10],
  ["COC(=O)NC(C)(C)CCCNc1cc(-c2ccc3cc(C#N)cnn23)ncc1C(=O)NC[C@@H](F)C(C)(C)O", 6.77],
  ["CC(=O)NC12CC(NC(=O)c3cnc(-c4ccc5cc(C#N)cnn45)cc3NC(C)C)(C1)C2", 6.65],
  ["CC(C)Nc1cc(-c2ccc3cc(C#N)cnn23)ncc1C(=O)NC1CC2(C1)CC(C)(O)C2 (stereo not shown)", 7.04]
]}

###

A collection of compounds and their measured IC50
target: IRAK4 enzyme (Homo sapiens (Human), UniProt Q9NWZ3); assay: biochemical; type: biochemical; details: IRAK4 enzyme, TR-FRET, 500 μM ATP
Sequence (Q9NWZ3 whole entry): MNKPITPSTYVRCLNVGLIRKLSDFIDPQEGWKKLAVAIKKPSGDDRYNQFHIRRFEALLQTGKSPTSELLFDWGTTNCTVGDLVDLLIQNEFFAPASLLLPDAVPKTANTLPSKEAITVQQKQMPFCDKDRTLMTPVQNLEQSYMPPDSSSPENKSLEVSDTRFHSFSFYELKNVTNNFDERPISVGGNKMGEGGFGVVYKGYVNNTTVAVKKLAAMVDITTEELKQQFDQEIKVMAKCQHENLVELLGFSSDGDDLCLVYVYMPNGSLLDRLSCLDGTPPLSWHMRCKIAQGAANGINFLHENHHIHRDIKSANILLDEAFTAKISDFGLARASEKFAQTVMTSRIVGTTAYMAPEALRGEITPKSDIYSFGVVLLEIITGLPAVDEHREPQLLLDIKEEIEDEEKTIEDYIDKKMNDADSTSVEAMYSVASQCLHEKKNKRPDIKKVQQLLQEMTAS

{"columns": ["compound", "relation_operator", "IC50 / nM"],
 "data": [
  ["CC(C)(O)[C@H](F)CNC(=O)c1cnc(-c2ccc3cc(C#N)cnn23)cc1NC1C2CNCC1C2 (single isomer, unassigned) [Example 26]", "=", 3],
  ["CC(C)(O)[C@H](F)CNC(=O)c1cnc(-c2ccc3cc(C#N)cnn23)cc1Nc1cnc2c(c1)OCCO2", "<", 1],
  ["CNC(=O)[C@H](C)Nc1cc(-c2ccc3cc(C#N)cnn23)ncc1C(=O)NC[C@@H](F)C(C)(C)O", "=", 88],
  ["CC1(Nc2cc(-c3ccc4cc(C#N)cnn34)ncc2C(=O)NC[C@@H](F)C(C)(C)O)CC1", "<", 1],
  ["N#Cc1cnn2c(-c3cc(NC45CCC(O)(CC4)CC5)c(C(=O)NCCC4CCCO4)cn3)ccc2c1 (stereo not drawn)", "=", 1],
  ["CC(C)Nc1cc(-c2ccc3cc(C#N)cnn23)ncc1C(=O)NC1CCN(C2COC2)CC1", "=", 4],
  ["CN1CCOc2cc(Nc3cc(-c4ccc5cc(C#N)cnn45)ncc3C(=O)NC[C@@H](F)C(C)(C)O)ccc21", "=", 1],
  ["CC(C)(O)[C@H](F)CNC(=O)c1cnc(-c2ccc3cc(C#N)cnn23)cc1NCc1cccnc1", "=", 3],
  ["CC(C)(F)[C@H](F)CNC(=O)c1cnc(-c2ccc3cc(C#N)cnn23)cc1NC12CCC(O)(CC1)CC2", "<", 1],
  ["CC(C)(O)[C@H](F)CNC(=O)c1cnc(-c2ccc3cc(C#N)cnn23)cc1N[C@H]1CCCNC1", "=", 1],
  ["COC(=O)N1CC(n2cc(Nc3cc(-c4ccc5cc(C#N)cnn45)ncc3C(=O)NC[C@@H](F)C(C)(C)O)cn2)C1", "<", 1],
  ["CC(C)(O)[C@H](F)CNC(=O)c1cnc(-c2ccc3cc(C#N)cnn23)cc1NC1CCNCC1", "=", 3],
  ["COCCCNc1cc(-c2ccc3cc(C#N)cnn23)ncc1C(=O)NC[C@@H](F)C(C)(C)O", "=", 1],
  ["CC(C)(O)[C@H](F)CNC(=O)c1cnc(-c2ccc3cc(C#N)cnn23)cc1Nc1ccc(C(F)(F)F)nc1", "=", 1],
  ["N#Cc1cnn2c(-c3cc(NC45CCC(O)(CC4)CC5)c(C(=O)NCc4ccccn4)cn3)ccc2c1", "=", 2]
]}

###

A collection of molecules and their measured IC50
target: IRAK4 enzyme (Homo sapiens (Human), UniProt Q9NWZ3); experiment: biochemical; format: biochemical; details: IRAK4 enzyme, TR-FRET, 500 μM ATP

{"columns": ["molecule", "relation_operator", "IC50 [nM]"],
 "data": [
  ["CN1CCC[C@H](Nc2cc(-c3ccc4cc(C#N)cnn34)ncc2C(=O)NC[C@@H](F)C(C)(C)O)C1", "=", 8],
  ["CC(C)(O)[C@H](F)CNC(=O)c1cnc(-c2ccc3cc(C#N)cnn23)cc1NC1COC1", "<", 1],
  ["CC(C)(C)Nc1cc(-c2ccc3cc(C#N)cnn23)ncc1C(=O)NC[C@@H](F)C(C)(C)O", "<", 1],
  ["N#Cc1cnn2c(-c3cc(NC45CCC(O)(CC4)CC5)c(C(=O)NCC(F)(F)C(=O)N4CC(F)(F)C4)cn3)ccc2c1", "=", 2],
  ["CC(C)(O)[C@H](F)CNC(=O)c1cnc(-c2ccc3cc(C#N)cnn23)cc1NC[C@H]1CCC(=O)N1", "=", 3],
  ["CC(C)(O)[C@H](F)CNC(=O)c1cnc(-c2ccc3cc(C#N)cnn23)cc1NC1CC2CCC(C1)N2 (stereo partly drawn) [Example 14]", "=", 3],
  ["CNC(=O)[C@H](F)CNC(=O)c1cnc(-c2ccc3cc(C#N)cnn23)cc1NC12CCC(O)(CC1)CC2", "=", 1],
  ["CC(C)(O)[C@H](F)CNC(=O)c1cnc(-c2ccc3cc(C#N)cnn23)cc1NC1CC2(CCN2)C1 (stereo partly drawn) [Example 911]", "=", 7],
  ["CC(C)(O)CCNC(=O)c1cnc(-c2ccc3cc(C#N)cnn23)cc1NC12CCC(O)(CC1)CC2", "<", 1],
  ["N#CCNC(=O)c1cnc(-c2ccc3cc(C#N)cnn23)cc1N[C@H]1CC[C@H](N2CCOC2=O)CC1", "<", 1],
  ["CC(C)(O)[C@H](F)CNC(=O)c1cnc(-c2ccc3cc(C#N)cnn23)cc1Nc1cnc(Cl)nc1", "<", 1],
  ["CC(C)Nc1cc(-c2ccc3cc(C#N)cnn23)ncc1C(=O)NC1CCS(=O)(=O)CC1", "=", 19],
  ["CC(C)(O)[C@H](F)CNC(=O)c1cnc(-c2ccc3cc(C#N)cnn23)cc1N[C@@H]1CCN(S(C)(=O)=O)C1", "<", 1],
  ["CC(C)(O)[C@H](F)CNC(=O)c1cnc(-c2ccc3cc(C#N)cnn23)cc1Nc1ccc(-c2cn[nH]c2)cn1", "<", 1],
  ["CC(C)(O)[C@H](F)CNC(=O)c1cnc(-c2ccc3cc(C#N)cnn23)cc1N[C@H]1CN2CCC1CC2", "=", 131]
]}

###

tested on: TNFα; experiment: cells; assay type: cell-based, human; settings: Homo sapiens, Monocyte, LPS-stimulated human monocytes, TNFα content; read-out: EC50 TNF
pEC50: −log10 of the molar value.
quantity_kind: pEC50

{"columns": ["molecule", "measured_target", "measurement"],
 "data": [
  ["CC(C)(O)[C@H](F)CNC(=O)c1cnc(-c2ccc3cc(C#N)cnn23)cc1N[C@H]1C[C@H](CNC(=O)CC(F)(F)F)C1", "TNFα", 7.57],
  ["COCC(=O)N1CCC(Nc2cc(-c3ccc4cc(C#N)cnn34)ncc2C(=O)NC[C@@H](F)C(C)(C)O)CC1", "TNFα", 6.52],
  ["N#Cc1cnn2c(-c3cc(Nc4cccnc4)c(C(=O)N[C@H]4CC[C@H](NC(=O)C5CC5)CC4)cn3)ccc2c1", "TNFα", 7.03],
  ["COC(=O)NC12CCC(Nc3cc(-c4ccc5cc(C#N)cnn45)ncc3C(=O)NC3CCC(NC(=O)C4CC4)CC3)(CC1)CC2 (centres unmarked)", "TNFα", 7.42],
  ["CC(C)(O)[C@H](F)CNC(=O)c1cnc(-c2ccc3cc(C#N)cnn23)cc1N[C@@]12CC[C@@H](C1)[C@@H](O)C2", "TNFα", 7.85],
  ["CC(C)(O)[C@H](F)CNC(=O)c1cnc(-c2ccc3cc(C#N)cnn23)cc1N[C@H]1C[C@H](CN2CCOCC2)C1", "TNFα", 6.72],
  ["CC(C)(O)[C@H](F)CNC(=O)c1cnc(-c2ccc3cc(C#N)cnn23)cc1Nc1cnn(CC(F)(F)F)c1", "TNFα", 8.10],
  ["CC(C)(O)[C@H](F)CNC(=O)c1cnc(-c2ccc3cc(C#N)cnn23)cc1Nc1ccncc1", "TNFα", 6.84],
  ["COC(=O)N[C@H]1C[C@H](CNc2cc(-c3ccc4cc(C#N)cnn34)ncc2C(=O)NC[C@@H](F)C(C)(C)O)C1", "TNFα", 7.34],
  ["CCn1cnc(Nc2cc(-c3ccc4cc(C#N)cnn34)ncc2C(=O)NC[C@@H](F)C(C)(C)O)n1", "TNFα", 6.85],
  ["COC(=O)N1C[C@@H]2[C@H](C1)[C@H]2Nc1cc(-c2ccc3cc(C#N)cnn23)ncc1C(=O)NC[C@@H](F)C(C)(C)O", "TNFα", 7.46],
  ["CC(C)(O)[C@H](F)CNC(=O)c1cnc(-c2ccc3cc(C#N)cnn23)cc1Nc1nc(C(F)(F)F)cs1", "TNFα", 6.49],
  ["CC(C)(O)[C@H](F)CNC(=O)c1cnc(-c2ccc3cc(C#N)cnn23)cc1Nc1ccc(F)cn1", "TNFα", 7.38],
  ["CNC(=O)c1cnc(-c2ccc3cc(C#N)cnn23)cc1NC12CCC(C(=O)NC)(CC1)CC2", "TNFα", 7.41]
]}
